# MEASURED_TARGET: Plasma Kallikrein (Homo sapiens (Human))
# Sequence (P03952 391-638): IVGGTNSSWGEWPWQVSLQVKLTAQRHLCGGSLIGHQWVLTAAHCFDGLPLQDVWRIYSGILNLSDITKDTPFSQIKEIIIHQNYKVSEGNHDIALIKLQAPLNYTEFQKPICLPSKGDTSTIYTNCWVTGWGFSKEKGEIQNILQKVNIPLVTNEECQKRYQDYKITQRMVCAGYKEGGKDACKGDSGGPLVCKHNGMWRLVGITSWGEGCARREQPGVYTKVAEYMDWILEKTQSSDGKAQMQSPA
# Sequence (P03952 20-390 partner): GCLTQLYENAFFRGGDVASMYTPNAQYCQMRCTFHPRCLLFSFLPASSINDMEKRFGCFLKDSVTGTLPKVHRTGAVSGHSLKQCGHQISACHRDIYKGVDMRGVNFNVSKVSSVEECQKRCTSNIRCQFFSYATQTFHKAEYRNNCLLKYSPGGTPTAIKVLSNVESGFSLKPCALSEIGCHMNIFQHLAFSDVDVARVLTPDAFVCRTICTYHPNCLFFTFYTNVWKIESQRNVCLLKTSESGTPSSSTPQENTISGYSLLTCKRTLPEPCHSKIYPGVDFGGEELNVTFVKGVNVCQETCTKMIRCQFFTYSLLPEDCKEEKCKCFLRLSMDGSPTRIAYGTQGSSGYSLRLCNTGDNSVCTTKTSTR
# PROCEDURE_DETAILS: Determination of related protease inhibition: Plasma Kallikrein (fluorogenic substrate at Km)
# CONDITION_DETAILS: 25° C., read-out: IC50 (human PKal)
PARAMETER_MEASURED: IC50

What IC50 value was documented for this molecule, CC(C)N1CC2(CN(Cc3ccc(CNc4ccc5c(N)nccc5c4)c(F)c3)C2)C1 [Example 1037] ?
10 to 40 µM

Now this one: CN1CCC(OCc2ccc(CNc3ccc4cnccc4c3)cc2)CC1 [Example 2193]
> 20 µM

Note, next up: CN1CCC(CNc2ccc(CNc3cc(Cl)c4cnccc4c3)cn2)CC1 [Example 1208]
> 40 µM

Entry COC(=O)c1c[nH]c2nccc(NCc3ccc(NCC4CCN(C)CC4)nc3)c12 [Example 1248] please
> 20 µM

Also need CN1CCC(CNc2cc(CNc3ccc4c(N)nccc4c3)ccn2)CC1 [Example 4284] , thanks.
10 to 40 µM

###

# MEASURED_TARGET: KLK1 (Homo sapiens (Human))
# Sequence (P06870 25-262): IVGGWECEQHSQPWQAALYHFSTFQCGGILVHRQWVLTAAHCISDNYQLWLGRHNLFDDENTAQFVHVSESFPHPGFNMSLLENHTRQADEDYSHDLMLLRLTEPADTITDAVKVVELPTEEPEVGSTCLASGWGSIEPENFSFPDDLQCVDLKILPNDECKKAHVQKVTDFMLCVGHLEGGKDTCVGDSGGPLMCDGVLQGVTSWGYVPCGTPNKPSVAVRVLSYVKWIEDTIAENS
Record form. Attribute: IC50. Fill in for each entry.

Given `N#Cc1cc(NCc2ccc(N3CCn4c(nnc4C(F)(F)F)C3)nc2)c2cc(Cl)[nH]c2n1` , state its recorded IC50.
> 40 µM

# iterate: `CN1CCC(COc2cc(CNc3nccc4c(N)ccnc34)ccn2)CC1`
10 to 40 µM

Another compound: CC1c2nnc(C(F)(F)F)n2CCN1c1ccc(CNc2cccc3c(N)nccc23)cn1 (single isomer, unassigned) [Example 1294]
3 to 10 µM

Follow-up item: Nc1nccc2c(N3CCCC3c3ccc(N4CCn5c(nnc5C(F)(F)F)C4)nc3)cccc12 (single isomer, unassigned) [Example 10004]
10 to 40 µM

Another: `Nc1nccc2c(NCc3ccc(CN4CCOCC4)cc3F)cccc12`
10 to 40 µM

###

Reported values: IC50 for Plasmin (Homo sapiens (Human), UniProt P00747), one per item.

What value of IC50 has been recorded for this entry: Nc1ncc(Cl)c2cc(NCc3ccnc(OCC4CCn5ccnc5C4)c3)ccc12 (single isomer, unassigned)
> 40 µM

Please answer likewise for `Nc1nccc2c(NCc3ccc(N4CCn5ccnc5C4)nc3)cccc12`
> 40 µM

And the next one, `CN1CCC(Oc2ccc(CNc3cccc4c(N)nccc34)cc2)CC1` ?
> 40 µM

And CC(C)N1C[C@@H]2C[C@H]1CN2CCc1ccc(CNc2cccc3c(N)nccc23)c(F)c1 (stereo in doubt) ?
> 40 µM

###

# MEASURED_TARGET: Plasma Kallikrein (Homo sapiens (Human))
# PROCEDURE_DETAILS: Determination of related protease inhibition: Plasma Kallikrein (fluorogenic substrate at Km)
# CONDITION_DETAILS: 25° C., read-out: IC50 (human PKal)
pIC50: −log10 of the molar value.
PARAMETER_MEASURED: pIC50

Param readout = pIC50; param system = Plasma Kallikrein (Homo sapiens (Human)); param query = `CN1CCC(CNc2ccc(CNc3cccc4c(N)ncc(F)c34)cn2)CC1` ; response: value
< 4.40

Moving on to the next compound: `CN1CCC(CNc2ccc(CNc3cccn4ccnc34)cn2)CC1`
< 4.00

How about `CN1CCC(CNc2ccc(CNc3ccc4c[nH]c(=O)cc4c3)cn2)CC1` ?
< 4.40

Param item: CC1CN(c2ccc(CNc3cccc4c(N)nccc34)cn2)Cc2nnc(C(F)(F)F)n21 (single isomer, unassigned) [Example 1297]
< 4.40

Try `Cc1nnc2n1CCN(c1ccc(CNc3cccc4c(N)nccc34)cn1)C2` next.
< 4.40

Repeat for the following compound: `CN1CCC(CNc2ccc(CNc3ccc4cnccc4c3F)cn2)CC1`
< 4.40

What do you get for `CN1CCC(CNc2ccc(CNc3cc(C#N)cc4[nH]ccc34)cn2)CC1` ?
< 4.40

# iterate: `Nc1nccc2c(NCc3ccc(N4CCn5c(nnc5C(F)(F)F)C4)cn3)cccc12`
< 4.40

Can you handle Nc1ncc(Cl)c2cc(NCc3ccnc(NCC4CCn5ccnc5C4)c3)ccc12 (centres unmarked) next?
< 4.40

And Nc1ncc(Cl)c2cc(NCc3ccnc(OCC4CCCn5ccnc54)c3)ccc12 (single isomer, unassigned) [Example 4450] ?
4.40 to 5.00

Consider next the compound `Nc1ncc(Cl)c2cc(NCc3ccc(NCCc4nccn4C(F)F)nc3)ccc12` in the same way.
< 4.40

Next entry: `CN1CCC(COc2cc(CNc3ccc4ncc(=O)[nH]c4c3)ccn2)CC1`
4.40 to 5.00

Repeat with `CC(C)(O)c1cnc2n1CCN(c1ccc(CNc3cccc4c(N)nccc34)cn1)C2`
< 4.40

Consider next the compound Nc1ncc(Cl)c2cc(NCc3ccnc(N4CCn5ccnc5C4)c3)ccc12 [Example 4437] in the same way.
< 4.40

Another compound: `CC(=O)c1cncc(NCc2ccnc(OCC3CCN(C)CC3)c2)c1`
< 4.00

Queued: `CN1CCC(COc2cc(CNc3ccc(F)c4c(N)nccc34)ccn2)CC1`
< 4.40

Please answer likewise for Nc1ncc(Cl)c2cc(NCc3cnc(NCC4CCn5ccnc5C4)nc3)ccc12 (centres unmarked)
5.00 to 5.52
